Test: qHTS Assay for inhibitors of the human cytomegalovirus (HCMV); also: % is scaled to controls: 0 for no effect and ±100 for the full control effect
Conditions: HFF cells, HCMV-luciferase reporter, 72 h; at 57.5 µM; stronger effect = lower value
The whole screen tested about 410,000 compounds, of which about 18,000 (4.4%) were called active. About 7% were inconclusive and are not listed. The entries come from a sample that favours actives as a whole.
Give activity change, negative = inhibition for every item shown.
Give bare numbers, in %.

Problem: What value of activity change, negative = inhibition has been recorded for this entry: COc1ccc(CNC(=O)CSc2n[nH]c(-c3ccc(F)cc3)n2)cc1
Result: 19.4

Give measured activity change, negative = inhibition for every item shown.
1. COc1ccc(CNC(=O)Cn2nnc(-c3ccccc3F)n2)cc1
2. COc1cccc(-c2nnc3n(CCc4ccccc4)c(=O)c4ccccc4n23)c1O
3. Cn1nnnc1SCCCNCc1ccc(Cl)cc1
4. COc1ccc(C(=O)c2oc3ccccc3c2NC(=O)COc2cccc(C)c2)cc1
5. Cc1cccc(C(=O)OC(C)C(=O)NC2CCCc3ccccc32)c1O (stereo unspecified)
6. COc1ccc(-c2csc(C(O)c3cccc(Cl)c3)n2)cn1 (stereo unspecified)
7. COc1cccc(NC(=O)c2ccc3nc(CCc4ccccc4)oc3c2)c1

Result:
1: -0.694; 2: 2.64; 3: 5.82; 4: 9.86; 5: -10.7; 6: -37.6; 7: 41.2

Give measured activity change, negative = inhibition for every item shown.
1. Cc1cc(C)cc(NC(=O)Cn2c(=O)c3ccccc3n3nncc23)c1
2. CCOC(=O)C1CCN(C(=O)CSc2c3c(nc4ccc(Cl)cc24)CCCC3)CC1

Result:
1. 2.01
2. 92.3

Problem: What value of activity change, negative = inhibition has been recorded for this entry: Cc1ccc(-c2nc3ccccn3c2Nc2c(C)cccc2C)o1
Result: -20.4

The measured values listed here are drawn from PubChem BioAssay AID1259415.
